biological target: Induced myeloid leukemia cell differentiation protein Mcl-1 (Homo sapiens); assay: Binding affinity to Mcl-1 (unknown origin) by TR-FRET assay
Sequence (Q07820 whole entry, the tested form may be a part): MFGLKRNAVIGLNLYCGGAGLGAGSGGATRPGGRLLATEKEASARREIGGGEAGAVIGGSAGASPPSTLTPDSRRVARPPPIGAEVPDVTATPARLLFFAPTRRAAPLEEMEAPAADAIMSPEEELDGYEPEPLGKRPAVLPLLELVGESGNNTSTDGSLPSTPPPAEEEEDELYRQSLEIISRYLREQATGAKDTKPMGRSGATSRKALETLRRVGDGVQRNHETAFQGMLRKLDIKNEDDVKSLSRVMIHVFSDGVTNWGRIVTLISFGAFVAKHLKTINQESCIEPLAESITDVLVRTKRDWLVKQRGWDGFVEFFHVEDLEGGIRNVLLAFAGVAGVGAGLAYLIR
pKi: −log10 of the molar value.
parameter: pKi

Ask | What does the data say about its pKi? Entry: `CC1(C)CCC(CN2CCN(c3ccc(C(=O)NS(=O)(=O)c4ccc(NCC5CCOCC5)c([N+](=O)[O-])c4)c(Oc4cnc5[nH]ccc5c4)c3)CC2)=C(c2ccc(Cl)cc2)C1`
Reply | < 6.35

---

biological target: Induced myeloid leukemia cell differentiation protein Mcl-1 (Homo sapiens); assay: Inhibition of FITC-labeled Bak-BH3 peptide binding to Mcl-1 (unknown origin) by fluorescence polarization assay
parameter: IC50 (µM)
Note: unit µM is implicit; provide only the numeric part.

Ask | What does the data say about its IC50? Entry: `CC(C)Oc1cc(C(=O)Nc2ccc(C(=O)Nc3ccc(C(=O)O)cc3OC(C)C)nc2OC(C)C)ccc1N`
Reply | 10

---

target: Induced myeloid leukemia cell differentiation protein Mcl-1 (Homo sapiens); assay: Inhibition of FITC-BID BH3 peptide binding to recombinant GST-tagged N-terminal/C-terminal truncated Mcl-1 (unknown origin) expressed in Escherichia coli BL21 (DE3) after 5 mins by fluorescence polarization assay
parameter: IC50
Reply with the number, then its unit.

Ask | What does the data say about its IC50? Entry: `Cc1cs/c(=N\C2CCCCC2)n1/N=C/c1cc(O)c(O)c(O)c1`
Reply | 4.8 µM

---

molecular target: Apoptosis regulator Bcl-2 (Homo sapiens)
Sequence (P10415 whole entry): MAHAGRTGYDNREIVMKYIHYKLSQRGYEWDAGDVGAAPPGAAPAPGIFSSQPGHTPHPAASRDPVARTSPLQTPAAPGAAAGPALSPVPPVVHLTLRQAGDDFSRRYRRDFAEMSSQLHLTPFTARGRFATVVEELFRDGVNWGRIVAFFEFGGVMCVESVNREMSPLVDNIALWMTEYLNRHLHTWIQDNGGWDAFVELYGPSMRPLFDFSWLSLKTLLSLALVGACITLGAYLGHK
pKi: −log10 of the molar value.
parameter: pKi

Ask | What does the data say about its pKi? Entry: `Cc1c(S(C)(=O)=O)c(-c2cc(F)cc(N3CCN(c4ccc(NS(=O)(=O)c5ccc(N[C@H](CCN6CCC(O)CC6)CSc6ccccc6)c(S(=O)(=O)C(F)(F)F)c5)cc4)CC3)c2)c(-c2ccc(Cl)cc2)n1C(C)C`
Reply | > 9.00

These data points were gathered from ChEMBL document CHEMBL4052581.
